- PROCEDURE_DETAILS: RP-TLC lipophilicity, silica gel C8, methanol-water
- Assay type: physicochemical
- RUN_PARAMETERS: RP-TLC silica gel C8, methanol-water 30 to 70% (v/v), intercept of Soczewiński–Wachtmeister equation
- Procedure: The ready-to-use TLC glass plates covered by octadecyl(C18)- and octyl(C8)-modified TLC silica layers were purchased from Merck (Darmstadt, Germany). […] Before analysis, the chromatographic chamber (Twin Trough Chambers from CAMAG Philadelphia, USA) was saturated for 20 min. […] The retention parameter, RM, was calculated for each compound according to the Bate-Smith and Westall formula: (7) RM=log(1/RF−1) and listed in Table S2. […]
QUANTITY_KIND: R M ^0
Answer as a number with no unit attached.

// known answers, use as guide
Reported R M ^0 ( "CCn1cc(C(=O)O)c(=O)c2cc(F)c(N3CC[N+]4(CC3)CN3C(=N4)C(C(=O)O)=Cc4ccccc43)cc21.[Cl-]" ) = 1.99

The recorded R M ^0 for COc1c(N2CC[N+]3(CN4C(=N3)C(C(=O)O)=Cc3ccccc34)C(C)C2)c(F)cc2c(=O)c(C(=O)O)cn(C3CC3)c12.[Cl-] (stereo not shown) is 2.31

Item: "O=C(O)C1=Cc2ccccc2N2C[N+]3(CCN(c4cc5c(cc4F)c(=O)c(C(=O)O)cn5C4CC4)CC3)N=C12.[Cl-]" | R M ^0: 1.71

For this molecule ( "CCn1cc(C(=O)O)c(=O)c2cnc(N3CC[N+]4(CC3)CN3C(C)=CC(C)=C(C(=O)O)C3=N4)nc21.[Cl-]" ), measured R M ^0 is 1.16

Lab book: R M ^0 of CCn1cc(C(=O)O)c(=O)c2cc(F)c(N3CCNC(C)C3)c(F)c21 (stereo not shown) [Compound 17, reference compound] noted as 2.06

Next:
Documented R M ^0 of CC1CN(c2c(F)c(N)c3c(=O)c(C(=O)O)cn(C4CC4)c3c2F)CC(C)[N+]12CN1C(=N2)C(C(=O)O)=Cc2ccccc21.[Cl-] (stereo not shown) : 2.74

Kindly note the recorded R M ^0 for CCn1cc(C(=O)O)c(=O)c2cc(F)c(N3CC[N+]4(CN5C(C)=CC(C)=C(C(=O)O)C5=N4)C(C)C3)c(F)c21.[Cl-] (stereo not shown) , which is 1.62

Measured R M ^0 of "CCn1cc(C(=O)O)c(=O)c2cc(F)c(N3CC[N+]4(CC3)CN3C(=N4)C(C(=O)O)=Cc4ccccc43)nc21.[Cl-]" : 1.76

Documented R M ^0 of "CCn1cc(C(=O)O)c(=O)c2cnc(N3CC[N+]4(CC3)CN3C(=N4)C(C(=O)O)=Cc4ccccc43)nc21.[Cl-]" : 1.32

// recorded R M ^0 for "CCn1cc(C(=O)O)c(=O)c2cc(F)c(N3CC[N+]4(CC3)CN3C(C)=CC(C)=C(C(=O)O)C3=N4)cc21.[Cl-]" : 1.63

For record COc1c(N2CCNC(C)C2)c(F)cc2c(=O)c(C(=O)O)cn(C3CC3)c12 (stereo not shown) [Compound 21, reference compound] the listed R M ^0 is 2.68

response.value for CCn1cc(C(=O)O)c(=O)c2cnc(N3CCNCC3)nc21 [Compound 19, pipemidic acid, reference compound] (field: R M ^0) = 1.87

// recorded R M ^0 for COc1c(N2CC[N+]3(CN4C(C)=CC(C)=C(C(=O)O)C4=N3)C(C)C2)c(F)cc2c(=O)c(C(=O)O)cn(C3CC3)c12.[Cl-] (stereo not shown) : 1.82
